# System: APP
# test: APP cleavage assay (Aβ peptides)
# Assay type: cell-based
# assay.setup: n=166
attribute.measured: pEC50
Friendly reminder that pEC50 comes from taking -log10 of the concentration in mol/L.

Query: Provide one value: measured pEC50 of C[C@H](NC(=O)[C@@H](O)c1cc(F)cc(F)c1)C(=O)N[C@@H]1C(=O)N(C)N=Cc2ccccc21
Reply: 9.09

====

# Test system: HT29-L23 cells
# test: Mucin-2 induction in HT29-L23 cells
# Assay type: cell-based
# assay.setup: read-out: HT29-L23 IC50 (mucin-2 induction)
attribute.measured: IC50 (nM)
Give just the number in nM; leave the unit off.

Query: Provide one value: measured IC50 of C[C@H](NC(=O)[C@@H](O)c1cc(F)cc(F)c1)C(=O)N[C@@H]1C(=O)N(C)N=Cc2ccccc21 [Compound 1]
Reply: 11.9
